As shown below, each of these molecules has a reported pIC50 value.
Target: human ferroportin (SLC40A1) (Homo sapiens)
Sequence (Q9NP59 whole entry): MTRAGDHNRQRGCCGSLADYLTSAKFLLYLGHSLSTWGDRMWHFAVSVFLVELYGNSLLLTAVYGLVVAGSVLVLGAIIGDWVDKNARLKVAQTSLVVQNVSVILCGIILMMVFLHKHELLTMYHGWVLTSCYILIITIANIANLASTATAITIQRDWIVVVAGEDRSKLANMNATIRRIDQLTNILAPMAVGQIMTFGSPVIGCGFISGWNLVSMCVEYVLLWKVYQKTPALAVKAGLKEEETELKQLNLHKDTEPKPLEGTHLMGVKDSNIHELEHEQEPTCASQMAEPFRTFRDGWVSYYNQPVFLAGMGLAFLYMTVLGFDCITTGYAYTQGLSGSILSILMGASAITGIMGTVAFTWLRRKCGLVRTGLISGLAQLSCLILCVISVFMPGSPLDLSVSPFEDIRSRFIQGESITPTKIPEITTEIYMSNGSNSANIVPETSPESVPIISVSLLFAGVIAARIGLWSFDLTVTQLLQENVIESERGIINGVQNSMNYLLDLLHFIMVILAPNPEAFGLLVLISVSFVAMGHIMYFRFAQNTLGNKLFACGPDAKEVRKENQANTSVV
Test: FPN activity assay: internalization/degradation of ferroportin-GFP in stably transfected HEK293 cells (decrease in GFP fluorescence)
Assay type: cell-based
Conditions: compound incubated at least 18 hours
pIC50: −log10 of the molar value. Numbered stars: 1 amine (or outer) side, 2 acyl side, 3 side chain; on linkers, the order of the positions; unused ones are H or OH. Bridge positions count the residues as written; N and C are the ends. Square brackets hold non-standard residues; d marks the D form. Side chains are listed from the residue outwards. Peptide text beside a SMILES is read from it. * marks the point of attachment. Dip = N[C@H](C(=O)O)C(c1ccccc1)c1ccccc1; Hag = O=C([C@H](CCC=[*:3])N[*:1])[*:2]; Palmitoyl = CCCCCCCCCCCCCCCC(=O)*; β3hF = N[C@H](CC(=O)O)Cc1ccccc1; Isovaleryl = CC(C)CC(=O)*; Ahx = NCCCCCC(=O)O

Reference set (2 entries):
>  <molecule>
CCCCCCCCCCCCCCCC(=O)NCCCCCC(=O)NCCCC[C@@H]1NC(=O)C[C@H](Cc2ccccc2)NC(=O)[C@@H](CCCCN)NC(=O)[C@H]([C@@H](C)CC)NC(=O)[C@H](C)NC(=O)[C@@H]2CCCN2C(=O)[C@H](C(c2ccccc2)c2ccccc2)NC(=O)[C@H](Cc2c[nH]cn2)NC(=O)[C@H]([C@@H](C)O)NC(=O)[C@@H](NC(=O)CC(C)C)CCC=CCC[C@@H](C(N)=O)NC1=O [Compd 84] (Isovaleryl-[Hag]TH[Dip]PAI[dK][β3hF]K([Ahx-Palmitoyl])[Hag]-NH2; staple 1-11)

>  <endpoint_label>
pIC50

>  <result>
6.30 to 7.00

$$$$
>  <molecule>
CCCCCCCCCCCCCCCC(=O)NCCCCCC(=O)NCCCC[C@H](NC(=O)C[C@H](Cc1ccccc1)NC(=O)[C@@H]1CCC=CCC[C@H](NC(=O)CC(C)C)C(=O)N[C@@H]([C@@H](C)O)C(=O)N[C@@H](Cc2c[nH]cn2)C(=O)N[C@@H](C(c2ccccc2)c2ccccc2)C(=O)N[C@@H](C)C(=O)N[C@@H](C)C(=O)N[C@@H]([C@@H](C)CC)C(=O)N1)C(=O)N[C@H](CCCCN)C(N)=O [Compd 44] (Isovaleryl-[Hag]TH[Dip]AAI[Hag][β3hF]K([Ahx-Palmitoyl])[dK]-NH2; staple 1-8)

>  <endpoint_label>
pIC50

>  <result>
7.00 to 8.00

$$$$

Task: // pIC50 lookup, key: CCCCCCCCCCCCCCCC(=O)NCCCCCC(=O)NCCCC[C@H](NC(=O)C[C@H](Cc1ccccc1)NC(=O)[C@@H]1CC=CCCC[C@H](NC(=O)CC(C)C)C(=O)N[C@@H]([C@@H](C)O)C(=O)N[C@@H](Cc2c[nH]cn2)C(=O)N[C@@H](C(c2ccccc2)c2ccccc2)C(=O)N2CCC[C@H]2C(=O)N[C@@H](C)C(=O)N[C@@H]([C@@H](C)CC)C(=O)N1)C(=O)N[C@H](CCCCN)C(N)=O [Compd 30]
Output: 8.00 to 9.00

Origin of the recorded values: patent US20240209053A1
